B1: PRPH (parent)
chain: RTFGPPPSLSPGAFSYSSSSRFSS

- Variants of: B1
- Assay Name: protein stability index of a GFP-peptide fusion (GPS, HEK-293T) (PSI 1-6); higher = more stable;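 further: lentivirally expressed fusions sorted by FACS into six bins by GFP to DsRed ratio, PSI derived from sequencing read proportions per bin multiplied by bin number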
- Measurement Context: c terminus: a fixed tail appended
Assay Metric: protein stability index
Numbers only.

Sequence String	Assay Metric	Experimental Value
RTFGPPPSLSPGAFSYSSSSRTSS	protein stability index	4.17
RTFGPPESLSPGAFSYSSSSRFSS	protein stability index	2.89
RTFGPPPSLSPVAFSYSSSSRFSS	protein stability index	3.36
RTFGPPPSLSPGAFSYSQSSRFSS	protein stability index	3.5

Record protein stability index per entry; entries follow.
1. RTFGPPPSLSYGAFSYSSSSRFSS
2. RTFGPPPSLSPGAFSYSSFSRFSS
3. RSFGPPPSLSPGAFSYSSSSRFSS
4. RTFGPPPSLSPGMFSYSSSSRFSS
5. RTFGPPPSLSPGAFSYLSSSRFSS
6. RTFGPPPSLSPGAHSYSSSSRFSS

2.41
2.38
3.73
3.29
2.53
3.7

Record protein stability index per entry; entries follow.
1. TTFGPPPSLSPGAFSYSSSSRFSS
2. RTFGPPPSTSPGAFSYSSSSRFSS
3. RTWGPPPSLSPGAFSYSSSSRFSS

1: 2.63; 2: 3.7; 3: 3.19

Record protein stability index per entry; entries follow.
1. RTFGPPPSLSPGAFSYSSSSRFSY
2. RTFGPPPSLSPGAFSYSSNSRFSS
3. RTFGPPPSLSPGAFSYSSSSRFNS

1: 2.46; 2: 3.46; 3: 3.36
